- TESTED SYSTEM: PDE5 (human recombinant) (Homo sapiens, UniProt O76074)
- PROTOCOL: Inhibition of PDE5 activity (radioactive SPA assay)
- Format: biochemical
- SETUP CONDITIONS: specific Examples; one reading or average of ca. 2-6 readings; read-out: PDE5 pIC50 (± about 0.5) (converted)
Overview of recorded IC50 for various molecules
VALUE KIND: IC50 (µM)

[[record]]
sample_smiles = "CCn1ncc2c(NC(C)(C)C)c(C(=O)NCc3ccccc3)cnc21"
tested_system = "PDE5 (human recombinant) (Homo sapiens, UniProt O76074)"
value_kind = "IC50"
relation = "="
data_value = 3.98

[[record]]
sample_smiles = "CCn1ncc2c(NC(C)(C)C)c(C(=O)Nc3ccc(F)cc3)cnc21"
tested_system = "PDE5 (human recombinant) (Homo sapiens, UniProt O76074)"
value_kind = "IC50"
relation = ">"
data_value = 30.2

[[record]]
sample_smiles = "CCC(CC)CNC(=O)c1cnc2c(cnn2CC)c1N[C@@H](C)C(C)C"
tested_system = "PDE5 (human recombinant) (Homo sapiens, UniProt O76074)"
value_kind = "IC50"
relation = "="
data_value = 3.98

[[record]]
sample_smiles = "CCn1ncc2c(N[C@H](C)C(C)C)c(C(=O)Nc3ccc(F)cc3)cnc21"
tested_system = "PDE5 (human recombinant) (Homo sapiens, UniProt O76074)"
value_kind = "IC50"
relation = "="
data_value = 7.94

[[record]]
sample_smiles = "CCn1ncc2c(N[C@@H](C)C(C)C)c(C(=O)NCc3ccccc3)cnc21"
tested_system = "PDE5 (human recombinant) (Homo sapiens, UniProt O76074)"
value_kind = "IC50"
relation = "="
data_value = 10

[[record]]
sample_smiles = "CCn1ncc2c(N[C@@H](C)C(C)C)c(C(=O)Nc3ccc(F)cc3)cnc21"
tested_system = "PDE5 (human recombinant) (Homo sapiens, UniProt O76074)"
value_kind = "IC50"
relation = ">"
data_value = 30.2

